Target System: hERG (KCNH2) (Homo sapiens, UniProt Q12809)
Sequence (Q12809 whole entry): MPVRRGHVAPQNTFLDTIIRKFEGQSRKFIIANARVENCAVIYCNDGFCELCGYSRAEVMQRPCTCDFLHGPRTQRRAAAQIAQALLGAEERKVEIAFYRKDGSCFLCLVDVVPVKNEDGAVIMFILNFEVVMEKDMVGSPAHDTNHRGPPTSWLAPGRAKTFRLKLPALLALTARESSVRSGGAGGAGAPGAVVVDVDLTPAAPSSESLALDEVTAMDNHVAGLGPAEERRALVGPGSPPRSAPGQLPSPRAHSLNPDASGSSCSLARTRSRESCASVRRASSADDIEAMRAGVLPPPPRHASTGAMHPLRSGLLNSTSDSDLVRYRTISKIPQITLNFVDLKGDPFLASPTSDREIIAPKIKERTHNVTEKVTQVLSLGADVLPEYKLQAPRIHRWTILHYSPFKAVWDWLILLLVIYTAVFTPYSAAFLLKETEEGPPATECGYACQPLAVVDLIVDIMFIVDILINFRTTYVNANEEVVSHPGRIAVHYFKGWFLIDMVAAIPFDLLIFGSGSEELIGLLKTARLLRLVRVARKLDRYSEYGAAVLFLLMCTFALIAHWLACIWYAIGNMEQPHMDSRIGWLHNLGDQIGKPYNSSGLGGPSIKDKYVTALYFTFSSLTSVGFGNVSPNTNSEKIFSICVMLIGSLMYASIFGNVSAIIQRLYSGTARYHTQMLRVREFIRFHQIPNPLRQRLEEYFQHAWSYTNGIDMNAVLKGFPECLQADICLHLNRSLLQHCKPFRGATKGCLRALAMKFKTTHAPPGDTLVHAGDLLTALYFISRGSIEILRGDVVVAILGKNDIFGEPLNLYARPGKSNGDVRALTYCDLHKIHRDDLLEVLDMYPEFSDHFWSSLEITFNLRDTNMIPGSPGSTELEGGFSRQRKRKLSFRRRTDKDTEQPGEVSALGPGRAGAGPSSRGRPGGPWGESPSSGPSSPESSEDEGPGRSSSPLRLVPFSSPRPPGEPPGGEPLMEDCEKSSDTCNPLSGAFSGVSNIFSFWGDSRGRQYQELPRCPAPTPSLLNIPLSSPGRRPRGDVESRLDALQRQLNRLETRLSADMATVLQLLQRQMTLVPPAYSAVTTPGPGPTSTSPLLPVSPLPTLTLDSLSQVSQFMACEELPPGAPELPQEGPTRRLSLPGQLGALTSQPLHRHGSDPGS
Assay: Inhibition of human ERG expressed in HEK293 cells at 1 uM after 5 mins by patch clamp assay
Format: cell-based
Measurement Conditions: HEK293 cells that express hERG
Test Readout: inhibition at 5 min, 1 µM (%)
Write down the numeric answer in % and omit the unit.

// query Form field: reported inhibition at 5 min, 1 µM of COc1ccc(-n2ncc3cnc(-c4cncc(C)n4)cc32)nc1N1CCC[C@H](N)C1
// result 37

---

Assay: Metabolic stability in rat intestinal microsomes assessed as compound remaining after 60 mins in absence of NADPH/UDPGA
Type: ADME, Intestine, Microsome
Measurement Conditions: intestinal microsomes, read-out: Stability
Test Readout: remaining at 1 h (%)
Hi! Could you send only the number? It should be in %, unit omitted.

// query Which remaining at 1 h value is on record for Cc1cncc(-c2cc3c(ccn3-c3cccc(N4CCCNCC4)n3)cn2)n1 ?
// result 98

// query Which measured remaining at 1 h value corresponds to CCn1cc(-c2cc3c(-c4cccc(N5CCOCC5)n4)n[nH]c3cn2)cn1 ?
// result 77

// query For the compound shown here, Cc1cncc(-c2cc3c(cn2)cnn3-c2cccc(N3CCCNCC3)n2)n1 , give the reported remaining at 1 h.
// result 91

// query Which remaining at 1 h value belongs to Cc1cncc(-c2cc3c(-c4cccc(N5CCCNCC5)n4)n[nH]c3cn2)n1 ?
// result 103

// query Reported remaining at 1 h, compound Cc1cncc(-c2cnc3cnn(-c4cccc(N5CCCNCC5)n4)c3c2)n1 : ____
// result 87
